Molecular target: RET(KD: 658-1114 G810R) (Homo sapiens, UniProt P07949, G810R)
Construct: 658-1114; expressed in transfected cells; host or cells: 293T.165 (293T cells, generated in-house)
Sequence (P07949 658-1114 G810R): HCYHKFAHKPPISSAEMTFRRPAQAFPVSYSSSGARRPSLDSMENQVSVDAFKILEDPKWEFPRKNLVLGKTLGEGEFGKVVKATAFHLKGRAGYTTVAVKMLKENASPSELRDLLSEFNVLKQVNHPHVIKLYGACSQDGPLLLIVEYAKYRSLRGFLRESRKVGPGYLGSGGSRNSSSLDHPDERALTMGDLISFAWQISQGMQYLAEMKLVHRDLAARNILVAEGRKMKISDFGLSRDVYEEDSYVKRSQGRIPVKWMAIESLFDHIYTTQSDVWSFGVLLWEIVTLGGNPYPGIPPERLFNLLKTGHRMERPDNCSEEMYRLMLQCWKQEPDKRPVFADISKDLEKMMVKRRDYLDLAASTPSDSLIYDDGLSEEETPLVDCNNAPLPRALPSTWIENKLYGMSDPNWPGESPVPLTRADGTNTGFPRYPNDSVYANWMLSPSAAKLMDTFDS
Test: HiBiT-Degradation, RET G810R degradation assay (Nano-Glo HiBiT Lytic), 293T.165 cells
Assay type: cell-based
Details: 6.0 hours, half-maximal degradation concentration, read-out: 293T.165 RET(KD: 658-1114 G810R) 6.0 hours (DC50)
attribute measured: DC50

// query Return the recorded DC50 value; entry: CCC1(C(=O)NC(C)C)CCN(c2ccc(-c3cc(-c4cnn(C5CCN(C(=O)CN6CCN(c7ccc(NC8CCC(=O)NC8=O)cc7F)CC6)CC5)c4)cn4ncc(C#N)c34)cn2)CC1 (stereo not drawn)
// result < 50 nM

// query Return the recorded DC50 value; entry: CC(C)Oc1ccc(CN2[C@@H]3COC[C@H]2CN(c2ccc(-c4nc(-c5cnn([C@H]6CC[C@H](N7CCN(c8c(F)cc(NC9CCC(=O)NC9=O)cc8F)CC7)CC6)c5)cn5ncc(C#N)c45)cn2)C3)cn1 (mixture of isomers)
// result < 100 nM

// query Return the recorded DC50 value; entry: CCC1(C(=O)NC(C)C)CCN(c2ccc(-c3nc(-c4ccc(N5CCN(C(=O)CC6(O)CCN(c7ccc8c(N9CCC(=O)NC9=O)nn(C)c8c7)CC6)CC5)cc4)cn4ncc(C#N)c34)cn2)CC1
// result < 100 nM

// query Return the recorded DC50 value; entry: CCC1(C(=O)NC(C)C)CCN(c2ccc(-c3cc(-c4ccc(N5CCC(O)(CCN6CCC(c7ccc(NC8CCC(=O)NC8=O)cc7F)CC6)CC5)cc4)cn4ncc(C#N)c34)cn2)CC1 (stereo not drawn)
// result < 50 nM

// query Return the recorded DC50 value; entry: N#Cc1cnn2cc(-c3cnn(C4CCN(C(=O)CN5CCC(c6ccc(NC7CCC(=O)NC7=O)cc6F)CC5)CC4)c3)cc(-c3ccc(N4CCC(Nc5ccccc5)CC4)nc3)c12 (stereo not drawn)
// result < 100 nM

// query Return the recorded DC50 value; entry: CCC1(C(=O)NC2CCC2)CCN(c2ccc(-c3nc(-c4cnn([C@H]5CC[C@H](N6CCC(c7ccc8c(N9CCC(=O)NC9=O)nn(C)c8c7F)CC6)CC5)c4)cn4ncc(C#N)c34)cn2)CC1 (single isomer, unassigned)
// result < 100 nM

// query Return the recorded DC50 value; entry: N#Cc1cnn2cc(-c3ccc(N4CCN(C(=O)CC5(O)CCN(c6ccc(NC7CCC(=O)NC7=O)cc6F)CC5)CC4)cc3)cc(-c3ccc(N4CCN(C(=O)Cc5ccc(F)cn5)CC4)nc3)c12 (stereo not drawn)
// result < 50 nM

// query Return the recorded DC50 value; entry: N#Cc1cnn2cc(-c3ccc(N4CCN(C(=O)CC5(O)CCN(c6ccc(NC7CCC(=O)NC7=O)cc6)CC5)CC4)cc3)cc(-c3ccc(N4CCN(C(=O)Cc5ccc(F)cn5)CC4)nc3)c12 (stereo not drawn)
// result < 100 nM

// query Return the recorded DC50 value; entry: CCC1(C(=O)NC2CCC2)CCN(c2ccc(-c3nc(-c4cnn([C@H]5CC[C@H](CN6CCN(c7ccc(N[C@H]8CCC(=O)NC8=O)cc7F)CC6)CC5)c4)cn4ncc(C#N)c34)cn2)CC1
// result < 100 nM
